- EXPERIMENTAL SYSTEM: MyD88^TIR (Homo sapiens, UniProt Q99836)
- Construct: MyD88 (residues 148–296); 6xHis; made in house; host or cells: E. coli BL21 (DE3)
- Sequence (Q99836 148-296): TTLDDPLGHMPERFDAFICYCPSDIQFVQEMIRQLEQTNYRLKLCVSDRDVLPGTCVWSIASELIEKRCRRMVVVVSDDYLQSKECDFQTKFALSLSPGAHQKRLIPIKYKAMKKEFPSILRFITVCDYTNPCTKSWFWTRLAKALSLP
- PROTOCOL TEXT: T‐Surf phage library (P8 and P3) selection against MyD88^TIR, four rounds, NGS read counts
- Assay type: binding
- RUN CONDITIONS: P8_MyD88: rank by NGS read count before grouping
OBSERVATION TYPE: Rank (before)
Give bare numbers.

Consider the reported Rank (before) for these sequences:
* YLRADDNDYYWVTHVLLRHL | 2070
* DWVWDYLLPNLEGHAT | 2439
* YAASPWWFDELVKILE | 1733
* GALDEVRKILYANETM | 2280
* DSFFWGRLLYSLHVTE | 3074

Would you be so kind as to report Rank (before) for each listed record?
1. YLRADELLKILYANETM
2. CLLLSVFQTLFARRTE
3. DPHDLEWVYERLVSLF

2072
1353
2603

====

- EXPERIMENTAL SYSTEM: MAL^TIR (Homo sapiens, UniProt P58753)
- Construct: MAL (residues 79–221); 6xHis; made in house; host or cells: E. coli BL21 (DE3)
- Sequence (P58753 79-221): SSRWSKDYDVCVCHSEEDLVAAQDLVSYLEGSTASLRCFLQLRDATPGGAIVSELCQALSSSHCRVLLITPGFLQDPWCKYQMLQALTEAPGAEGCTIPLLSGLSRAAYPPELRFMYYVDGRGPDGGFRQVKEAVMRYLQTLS
- PROTOCOL TEXT: T‐Surf phage library (P8 and P3) selection against MAL^TIR, four rounds, NGS read counts
- Type: binding
- RUN CONDITIONS: P3 library, selection against MAL TIR; rank by count before grouping
OBSERVATION TYPE: P3_MAL Rank (before)
Answers are plain numbers.

* SPRKNLVSNLIEEFTR | 3108
* RGFLSHLSNLLQAKDH | 2392
* VLQKFISHLYDFLARK | 761

Next up:
Which P3_MAL Rank (before) reading was recorded for the sequence RGFLSHMRHPLQAKDH ? 2398

====

- EXPERIMENTAL SYSTEM: MAL^TIR (Homo sapiens, UniProt P58753)
- Construct: MAL (residues 79–221); 6xHis; made in house; host or cells: E. coli BL21 (DE3)
- PROTOCOL TEXT: T‐Surf phage library (P8 and P3) selection against MAL^TIR, four rounds, NGS read counts
- Type: binding
- RUN CONDITIONS: P8_MAL: rank by count before grouping
OBSERVATION TYPE: Rank (before)
Answers are plain numbers.

- WFYERLVSLILRIPK: 742
- AFLYTFLINLTPPTEY: 1858
- RFFLESLKQLLRSDGR: 2301
- WFYERLVSLLLRATKV: 1156

Would you be so kind as to report Rank (before) for each listed record?
1. AFLYDFLINLTHQTNF
2. WFYERLVSLILRATQV

1: 1814; 2: 1228

====

Hi there, I'd appreciate the recorded P3_MAL Rank (before) for every entry that follows.
- EXPERIMENTAL SYSTEM: MAL^TIR (Homo sapiens, UniProt P58753)
- Construct: MAL (residues 79–221); 6xHis; made in house; host or cells: E. coli BL21 (DE3)
- PROTOCOL TEXT: T‐Surf phage library (P8 and P3) selection against MAL^TIR, four rounds, NGS read counts
- Format: binding
- RUN CONDITIONS: P3 library, 4R selection against MAL, rank before grouping
Numbers only.

• KTLAGLRCDHLFRLRL = 3743
• RGCLSHLRHHLHAKEH = 2423
• WFFQEKVKIFEARKTI = 1224
• SSCREGLWRLLELCKK = 3210
• RRLKWKEALHQLYSWV = 2560
• PNLRTKVLYYPMRTKT = 2699
• NSFRERLRHLMAHSKM = 3479
• ESILTKLRRSSQSIAN = 2045
• YFWHALKNALAEHEKR = 1334
• MSQRYQGLKNRGIFTF = 2959

Would you be so kind as to report P3_MAL Rank (before) for each listed record?
1. SFFWNKLRYILPAPNN
2. KMQKWKDALTKVASL

[3013, 3697]

Would you be so kind as to report P3_MAL Rank (before) for each listed record?
1. NQWRNALTAAANLSVC
2. HHKGSYGEALAEDEER
3. SSFREGLWRLRELGKK
4. RLLKWNEELHLFHSWV

1. 3370
2. 2826
3. 3161
4. 2490

====

- EXPERIMENTAL SYSTEM: MyD88^TIR (Homo sapiens)
- Construct: MyD88 (residues 148–296); 6xHis; made in house; host or cells: E. coli BL21 (DE3)
- PROTOCOL TEXT: T‐Surf phage library (P8 and P3) selection against MyD88^TIR, four rounds, NGS read counts
- Assay type: binding
- RUN CONDITIONS: P3 library, 4R selection against MyD88, rank before grouping
rule met means recorded P3_MyD88 Rank (before) is 3000 or above; rule not met means it is below 3000.

Study these solved cases before continuing.
• QGDPSYRLTLHYRDVN = rule not met
• KEVEGWRNALTNVASL = rule met
• RSFREGLWRLLELRKK = rule not met
• SREYASCSWALTELVH = rule met

Say whether YTALTNSGFSEENLF shows P3_MyD88 Rank (before) of 3000 or more. rule not met

Same for EWMREQRRPALKERLP rule not met

Same for AWIREQLRTALKERPP rule not met

Same for EWIREQLRPALKERMT rule not met

Same for GRYDELFMTETDERKC rule not met

Same for KEVEGWRCADQSGEP rule met

Same for WIWEKLKYALPHRYEP rule not met

Same for YTALTYSGFHTFRGND rule not met

Same for YAFTGHLHRIWCSVA rule not met

====

- EXPERIMENTAL SYSTEM: MAL^TIR (Homo sapiens, UniProt P58753)
- Construct: MAL (residues 79–221); 6xHis; made in house; host or cells: E. coli BL21 (DE3)
- PROTOCOL TEXT: T‐Surf phage library (P8 and P3) selection against MAL^TIR, four rounds, NGS read counts
- Type: binding
- RUN CONDITIONS: P8 library, selection against MAL, rank before grouping
Hi there, I'd appreciate the recorded P8_MAL Rank (before) for every entry that follows.
Give bare numbers.

Consider the reported P8_MAL Rank (before) for these sequences:
- DFSHFWLFEAGGDAAI: 1981
- AFFWAHLRTVLGKPTI: 1657
- YFLHFLLVSRAEAEFI: 1499
- AFLYTFLGHLYNALVQAGIH: 1828
- FLNFRGLDVRNYFLGH: 1088
- WSLFTVRSVLYAMSPA: 1407

Next up:
Which P8_MAL Rank (before) reading was recorded for the sequence LFFWEHLKQLLRNDGR ? 2073

====

- EXPERIMENTAL SYSTEM: MyD88^TIR (Homo sapiens)
- Construct: MyD88 (residues 148–296); 6xHis; made in house; host or cells: E. coli BL21 (DE3)
- PROTOCOL TEXT: T‐Surf phage library (P8 and P3) selection against MyD88^TIR, four rounds, NGS read counts
- Type: binding
- RUN CONDITIONS: P8 library, selection against MyD88, rank by count before grouping
OBSERVATION TYPE: P8_MyD88 Rank (before)
Numbers only.

Consider the reported P8_MyD88 Rank (before) for these sequences:
• WDFSGNIEQFWDRLYY = 1570
• YASSWWLRELLQIA = 1851
• WALAELLKILYAKEPM = 1399
• DHHLDLPRGKAIKPEILG = 3049
• ASSPWALYELVEILTA = 2333

Would you be so kind as to report P8_MyD88 Rank (before) for each listed record?
1. NELVHVWSSKANSLVG
2. WDFASNMEQFWIVCI
3. NQWRNALTAAANLSGW
4. IDDDHLTYLVRLLQIA
5. DPQELDWFYELLVSPF
6. WALDELLKILHADETM

[3874, 1619, 3881, 3637, 2982, 1492]

Would you be so kind as to report P8_MyD88 Rank (before) for each listed record?
1. DWVWDYMLTNLEGPAG
2. WALDELLQILQARELS
3. LGYHWIDLGYFVGIED

[2455, 1462, 3249]

====

- EXPERIMENTAL SYSTEM: MAL^TIR (Homo sapiens, UniProt P58753)
- Construct: MAL (residues 79–221); 6xHis; made in house; host or cells: E. coli BL21 (DE3)
- PROTOCOL TEXT: T‐Surf phage library (P8 and P3) selection against MAL^TIR, four rounds, NGS read counts
- Type: binding
- RUN CONDITIONS: P3 library, selection against MAL TIR; rank by count after grouping
OBSERVATION TYPE: P3_MAL Rank (after)
Give bare numbers.

- EWIREQLRRSSQSIAN: 222

Would you be so kind as to report P3_MAL Rank (after) for each listed record?
1. YLKWGYPGLWDRLRFA
2. VEPTQVRKQSGSVKNA
3. YAFTGHLHRYLVQRSGI
4. WFWDKLIYALSRNPH

212
244
203
278

Would you be so kind as to report P3_MAL Rank (after) for each listed record?
1. YTALTNSGFHTFLDNE
2. YTALTNIGFHTFLDND
3. RGFLSKLSQHILKREK

217
195
283
